The values you see were collected from patent US20060084688A1.

Overview of reported pIC50 across a group of compounds:
Assayed system: recombinant human MMP-13 (Homo sapiens, UniProt P45452)
Experimental protocol: biochemical
Study conditions: Inhibition Table B
On this scale, pIC50 is minus log10 of a concentration expressed in M (mol/L).

Past entries and their recorded results:
[[record]]
compound = "CC1CCN(C(=O)C2CCN(c3ccc(S(=O)(=O)C4(C(=O)NO)CCOCC4)cc3)CC2)CC1"
value_kind = "pIC50"
observed_measurement = 7.97

[[record]]
compound = "O=C(C1CCCN(c2ccc(S(=O)(=O)C3(C(=O)NO)CCOCC3)cc2)C1)N1CCNCC1 (stereo not shown)"
value_kind = "pIC50"
observed_measurement = 7.10

[[record]]
compound = "O=C(Oc1ccc([N+](=O)[O-])cc1)N1CCN(c2ccc(S(=O)(=O)C3(C(=O)NO)CCOCC3)cc2)CC1"
value_kind = "pIC50"
observed_measurement = 8.70

[[record]]
compound = "CCN(CC)C(=O)C1CCN(c2ccc(S(=O)(=O)C3(C(=O)NO)CCOCC3)cc2)CC1"
value_kind = "pIC50"
observed_measurement = 7.51

[[record]]
compound = "O=C(N1CCNCC1)N1CCN(c2ccc(S(=O)(=O)C3(C(=O)NO)CCOCC3)cc2)CC1"
value_kind = "pIC50"
observed_measurement = 7.70


# input I have this compound here, CC1(C)C[C@@H]2C[C@@](C)(CN2C(=O)C2CCCN(c3ccc(S(=O)(=O)C4(C(=O)NO)CCOCC4)cc3)C2)C1 (stereo partly shown) , and I need its recorded pIC50.
# output 7.11

###

// reported IC50 for each item listed
Assayed system: recombinant human MMP-1 (Homo sapiens)
Construct: made in house; host or cells: transfected HT-1080 cells
Experimental protocol: biochemical
Study conditions: Inhibition Table B
Structures can show the parent of a compound that is named as a salt.

# input Quick check: IC50 of O=C(C1CCCN(c2ccc(S(=O)(=O)C3(C(=O)NO)CCOCC3)cc2)C1)N1CCNCC1 (stereo not shown) [Example 158] ?
# output > 10 µM

# input Cool, now CNC(=O)C1CCCN(c2ccc(S(=O)(=O)C3(C(=O)NO)CCOCC3)cc2)C1 (stereo not shown) [Example 139]
# output > 10 µM

# input Repeat with CCOC(=O)C1CCCCN1C(=O)C1CCCN(c2ccc(S(=O)(=O)C3(C(=O)NO)CCOCC3)cc2)C1 (stereo not shown) [Example 161]
# output > 10 µM

# input Further, for O=C(C1CCCN(c2ccc(S(=O)(=O)C3(C(=O)NO)CCOCC3)cc2)C1)N1CCOCC1 (stereo not shown) [Example 140] ?
# output > 10 µM

# input Input C#CCN1CCC(C(=O)NO)(S(=O)(=O)c2ccc(Sc3ccc(Cl)cc3)cc2)CC1 [Example 44b, monohydrochloride]
# output > 10 µM

# input Now the same for CN(C)[C@H]1CCN(C(=O)C2CCN(c3ccc(S(=O)(=O)C4(C(=O)NO)CCOCC4)cc3)CC2)C1 [Example 174]
# output 8 µM

# input What do we get for O=C(C1CCN(c2ccc(S(=O)(=O)C3(C(=O)NO)CCOCC3)cc2)CC1)N1CCCCCC1 [Example 165] ?
# output > 10 µM

# input // query: CN1CCN(C(=O)C2CCN(c3ccc(S(=O)(=O)C4(C(=O)NO)CCOCC4)cc3)CC2)CC1 [Example 150]
# output > 10 µM

# input Again, but for O=C(NO)C1(S(=O)(=O)c2ccc(-c3ccc(Cl)cc3)cc2)CCOCC1 [Example 216]
# output 1 µM

# input Another: O=C(NO)C1(S(=O)(=O)c2ccc(-c3cccc([N+](=O)[O-])c3)cc2)CCOCC1 [Example 214]
# output 1.1 µM

# input What do you have for CNC(=O)C1CCN(c2ccc(S(=O)(=O)C3(C(=O)NO)CCOCC3)cc2)CC1 [Example 130] ?
# output > 10 µM

# input Another molecule: O=C(NO)C1CCCN(c2ccc(S(=O)(=O)C3(C(=O)NO)CCOCC3)cc2)C1 (stereo not shown) [Example 146]
# output > 10 µM

# input Same again, this time with CC1(C)C[C@@H]2C[C@@](C)(CN2C(=O)C2CCCN(c3ccc(S(=O)(=O)C4(C(=O)NO)CCOCC4)cc3)C2)C1 (stereo partly shown) [Example 163]
# output > 10 µM

# input What about CN(C)C(=O)C1CCCN(c2ccc(S(=O)(=O)C3(C(=O)NO)CCOCC3)cc2)C1 (stereo not shown) [Example 155] ?
# output > 10 µM

# input Now the same for O=C(N1CCNCC1)N1CCN(c2ccc(S(=O)(=O)C3(C(=O)NO)CCOCC3)cc2)CC1 [Example 209]
# output > 10 µM

# input Same question, O=C(NC1CCc2ccccc21)C1CCN(c2ccc(S(=O)(=O)C3(C(=O)NO)CCOCC3)cc2)CC1 (stereo not shown) [Example 188] this time
# output > 10 µM

###

Assayed system: recombinant human MMP-1 (Homo sapiens)
Construct: made in house; host or cells: transfected HT-1080 cells
Experimental protocol: biochemical
Value kind: IC50

# input Which IC50 is reported for this compound? O=C(NO)C1(S(=O)(=O)c2ccc(SC3CCCCC3)cc2)CCN(C2CC2)CC1
# output > 10 µM

###

Assayed system: recombinant human MMP-1 (Homo sapiens, UniProt P03956)
Construct: made in house; host or cells: transfected HT-1080 cells
Sequence (P03956 100-469): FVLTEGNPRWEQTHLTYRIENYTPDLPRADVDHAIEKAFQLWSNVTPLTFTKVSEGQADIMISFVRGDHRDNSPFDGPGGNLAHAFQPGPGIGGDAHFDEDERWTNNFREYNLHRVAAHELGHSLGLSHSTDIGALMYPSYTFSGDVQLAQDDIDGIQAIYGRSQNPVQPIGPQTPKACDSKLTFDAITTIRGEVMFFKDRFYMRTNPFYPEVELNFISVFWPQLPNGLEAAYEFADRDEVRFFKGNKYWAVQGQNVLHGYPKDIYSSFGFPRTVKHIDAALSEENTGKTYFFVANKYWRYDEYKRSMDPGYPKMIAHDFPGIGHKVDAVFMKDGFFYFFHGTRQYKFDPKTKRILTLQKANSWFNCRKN
Experimental protocol: biochemical
Study conditions: Inhibition Table B
Recorded IC50 for the following compounds

The cases that follow already have their IC50 on record.
[[record]]
compound = "Cc1cc(Oc2ccc(S(=O)(=O)C3(C(=O)NO)CCNCC3)cc2)ccc1Cl.Cl [Example 79, monohydrochloride]"
observed_measurement = "> 10 µM"

[[record]]
compound = "CCOC(=O)C1CCN(C(=O)C2CCCN(c3ccc(S(=O)(=O)C4(C(=O)NO)CCOCC4)cc3)C2)CC1 (stereo not drawn)"
observed_measurement = "> 10 µM"

[[record]]
compound = "O=C(C1CCN(c2ccc(S(=O)(=O)C3(C(=O)NO)CCOCC3)cc2)CC1)N1CCC(O)(Cc2ccccc2)CC1"
observed_measurement = "> 10 µM"

[[record]]
compound = "O=C(C1CCN(c2ccc(S(=O)(=O)C3(C(=O)NO)CCOCC3)cc2)CC1)N1CCc2ccccc2C1"
observed_measurement = "> 10 µM"

[[record]]
compound = "CCNC(=O)C1CCCN(c2ccc(S(=O)(=O)C3(C(=O)NO)CCOCC3)cc2)C1 (stereo not drawn)"
observed_measurement = "> 10 µM"

[[record]]
compound = "O=C(NO)C1(S(=O)(=O)c2ccc(-c3ccc(C(F)(F)F)cc3)cc2)CCOCC1"
observed_measurement = "1.6 µM"

[[record]]
compound = "O=C(NCc1ccccn1)C1CCN(c2ccc(S(=O)(=O)C3(C(=O)NO)CCOCC3)cc2)CC1"
observed_measurement = "> 10 µM"

[[record]]
compound = "CCOC(=O)C1CCN(C(=O)C2CCN(c3ccc(S(=O)(=O)C4(C(=O)NO)CCOCC4)cc3)CC2)CC1"
observed_measurement = "> 10 µM"


# input Any idea what its IC50 is? The compound is O=C(NCc1cccs1)C1CCN(c2ccc(S(=O)(=O)C3(C(=O)NO)CCOCC3)cc2)CC1
# output 3.7 µM

# input Try this compound next: CCNC(=O)C1CCN(c2ccc(S(=O)(=O)C3(C(=O)NO)CCOCC3)cc2)CC1
# output 9 µM

# input # iterate: CC1CCN(C(=O)C2CCN(c3ccc(S(=O)(=O)C4(C(=O)NO)CCOCC4)cc3)CC2)CC1
# output > 10 µM

# input Please give the result for O=C(Oc1ccc([N+](=O)[O-])cc1)N1CCN(c2ccc(S(=O)(=O)C3(C(=O)NO)CCOCC3)cc2)CC1 too.
# output 7.3 µM

# input Try this compound too: CCOC(=O)C1CCCCN1C(=O)C1CCN(c2ccc(S(=O)(=O)C3(C(=O)NO)CCOCC3)cc2)CC1 (stereo not drawn)
# output > 10 µM

# input How about O=C(NCc1cccnc1)C1CCN(c2ccc(S(=O)(=O)C3(C(=O)NO)CCOCC3)cc2)CC1 ?
# output > 10 µM

# input Consider next the compound O=C(NO)C1CCN(c2ccc(S(=O)(=O)C3(C(=O)NO)CCOCC3)cc2)CC1 in the same way.
# output > 10 µM
